Reported z-score values for the following compounds.
Test system: Neuropilin-2 / VEGF-C interaction (human)
experimental_protocol: inhibitors of NRP2–VEGF-C binding, biochemical, microplate binding format, z-score (AID 743281); further: test concentration not given here
protocol_conditions: microplate NRP2/VEGF-C binding assay; stronger effect = lower value
Active and inactive are the calls of the source. How the calls were made is not given here.

# annotated cases, reported z-score shown
INSERT INTO results (compound, observed_result) VALUES
  ('O=c1ncc(F)c[nH]1', '-0.183 (inactive)'),
  ('OC[C@H]1O[C@@H](n2cnc3c(N[C@H]4CCC[C@@H]4O)ncnc32)[C@@H](O)C1O (stereo partly specified)', '-0.495 (inactive)'),
  ('CCOC(=O)C1(CCCCCCOc2ccc(Cl)cc2)CO1 (stereo unspecified)', '-0.326 (inactive)'),
  ('CCCCN1CCCC1CNC(=O)c1cc(C#N)c2ccccc2c1OC (stereo unspecified)', '1.01 (inactive)'),
  ('Nc1nc2ccc(Cl)cc2c2nc(-c3ccco3)nn12', '0.671 (inactive)');

Query :: For the compound shown here, COc1ccnc(CS(=O)c2nc3cc(OC(F)F)ccc3[nH]2)c1OC (stereo unspecified) , give the reported z-score.
Result :: 0.437 (inactive)

Query :: For the compound shown here, Cc1cccc(CCN2CCC(C(=O)c3ccc(NS(C)(=O)=O)cc3)CC2)n1 , give the reported z-score.
Result :: -0.668 (inactive)

Query :: For the compound shown here, COC(=O)Nc1nc2ccc(C(=O)c3ccc(F)cc3)cc2[nH]1 , give the reported z-score.
Result :: 0.511 (inactive)

Query :: For the compound shown here, CC[C@@H]1C(=O)OC[C@@H]1Cc1cncn1C , give the reported z-score.
Result :: -0.47 (inactive)

Query :: For the compound shown here, CN(C)CCOc1ccc(/C(=C(/CCCl)c2ccccc2)c2ccccc2)cc1 , give the reported z-score.
Result :: -0.537 (inactive)

Query :: For the compound shown here, O=c1c(O[C@@H]2O[C@H](CO)[C@H](O)[C@H](O)[C@H]2O)c(-c2ccc(O)c(O)c2)oc2cc(O)cc(O)c12 , give the reported z-score.
Result :: -0.00792 (inactive)
